Tested on: Drosophila S2 cl14 SmoIP sensor cells
protocol_description: normalized SmoIP GFP fluorescence (untreated unstimulated = 0%, untreated Hh-stimulated = 100%); higher = more Smo activation sensor fluorescence
experimental_context: stimulation: Hh conditioned medium (+Hh); compound concentration: 2 uM; 24 h
Where a name gives a salt, the structure may show the parent alone.
measured_attribute: normalized SmoIP GFP fluorescence
Quick note: unit goes after the number.

molecule | measured_attribute | val
C/C(=N\NC(=S)N1CCC1)c1ccccn1 | normalized SmoIP GFP fluorescence | 207%
C[C@H](Cn1cnc2c(N)ncnc21)OCP(=O)(O)O | normalized SmoIP GFP fluorescence | 104%
CC(C)C(=O)Oc1ccc(CO)cc1[C@H](CCN(C(C)C)C(C)C)c1ccccc1 [Fesoterodine-fumarate-Toviaz] | normalized SmoIP GFP fluorescence | 110%

Lab note: measured normalized SmoIP GFP fluorescence of c1ccc2c(c1)CCCC2C1=NCCN1 (centres undefined) [tetrahydrozoline-hcl] was 115%

Lab note: measured normalized SmoIP GFP fluorescence of O=C(CSc1nc2c(c(=O)n1-c1ccccc1)SCC2)Nc1ccc(-c2ccccc2)cn1 was 110%

Lab note: measured normalized SmoIP GFP fluorescence of Nc1nc(N)nc(-c2cc(Cl)ccc2Cl)n1 [Irsogladine-maleate] was 140%

Lab note: measured normalized SmoIP GFP fluorescence of Cc1c(NC(=O)OC[C@@H]2COCCN2)cn2ncnc(Nc3ccc4c(cnn4Cc4cccc(F)c4)c3)c12 was 128%

Lab note: measured normalized SmoIP GFP fluorescence of NC(=O)N1c2ccccc2CC(=O)c2ccccc21 [Oxcarbazepine] was 103%

Lab note: measured normalized SmoIP GFP fluorescence of CC1C(=O)OC2C(O)C34C5CC(C(C)(C)C)C36C(OC(=O)C6O)OC4(C(=O)O5)C12O (centres undefined) [Ginkgolide-B] was 85.5%

====

System: Drosophila S2 cl14 SmoIP sensor cells
protocol_description: normalized SmoIP GFP fluorescence (untreated unstimulated = 0%, untreated Hh-stimulated = 100%); higher = more Smo activation sensor fluorescence
experimental_context: stimulation: mock conditioned medium (-Hh); compound concentration: 2 uM; 24 h
measured_attribute: normalized SmoIP GFP fluorescence
Quick note: unit goes after the number.

Example entries and their recorded answers appear below.
compound | normalized SmoIP GFP fluorescence
CN1CCC(=C2c3ccccc3CCc3cccnc32)CC1 [azatadine-dimaleate] | 4.79%
CCC[C@H](NC(=O)/C(C#N)=C/c1cccc(Br)n1)c1ccccc1 | 15.7%
COc1cc(Nc2nc3ccccc3nc2NS(=O)(=O)c2ccc(NC(=O)c3ccc(C)c(OC)c3)cc2)cc(OC)c1 | 5.66%

Lab note: compound Cc1ccc(NC(=O)c2ccc(CN3CCN(C)CC3)cc2)cc1Nc1nc(-c2cccnc2)cs1 tested on Drosophila S2 cl14 SmoIP sensor cells; recorded normalized SmoIP GFP fluorescence was 20.6%

====

// normalized SmoIP GFP fluorescence lookup, one value per entry
System: Drosophila S2 cl14 SmoIP sensor cells
protocol_description: normalized SmoIP GFP fluorescence (untreated unstimulated = 0%, untreated Hh-stimulated = 100%); higher = more Smo activation sensor fluorescence
experimental_context: stimulation: Hh conditioned medium (+Hh); compound concentration: 2 uM; 24 h
Where a name gives a salt, the structure may show the parent alone.
# value in %; strip the unit string

compound | test_system | measured_attribute | val
O=C(NC(NC(=S)Nc1ccc(F)c([N+](=O)[O-])c1)C(Cl)(Cl)Cl)C(c1ccccc1)c1ccccc1 (stereo not drawn) | Drosophila S2 cl14 SmoIP sensor cells | normalized SmoIP GFP fluorescence | 108

Lab note: measured normalized SmoIP GFP fluorescence of CC[C@@H](C)Nc1cc(C(=O)N[C@H]2C[C@H]3CC[C@@H](C2)N3c2ccc(C(=O)C3CC3)cn2)c(C)cc1C(N)=O was 150

Lab note: measured normalized SmoIP GFP fluorescence of C[C@@H](NCCCc1cccc(C(F)(F)F)c1)c1cccc2ccccc12 [Cinacalcet-hydrochloride] was 104

Lab note: measured normalized SmoIP GFP fluorescence of CC(C)C[C@@H](C=O)NC(=O)[C@H](CC(C)C)NC(=O)[C@H](CC(C)C)NC(=O)OCc1ccccc1 was 112

Lab note: measured normalized SmoIP GFP fluorescence of COc1ccc(CNc2nc(N3CCC[C@H]3CO)ncc2C(=O)NCc2ncccn2)cc1Cl was 106

====

Test system: Drosophila S2 cl14 SmoIP sensor cells
protocol_description: normalized SmoIP GFP fluorescence (untreated unstimulated = 0%, untreated Hh-stimulated = 100%); higher = more Smo activation sensor fluorescence
experimental_context: stimulation: mock conditioned medium (-Hh); compound concentration: 2 uM; 24 h
measured_attribute: normalized SmoIP GFP fluorescence (%)
# value in %; strip the unit string

Lab note: compound CCc1cc(Nc2nccc(-c3c(-c4ccc(OC)c(C(=O)Nc5c(F)cccc5F)c4)nc4ccccn34)n2)c(OC)cc1N1CCC(N2CCN(S(C)(=O)=O)CC2)CC1 tested on Drosophila S2 cl14 SmoIP sensor cells; recorded normalized SmoIP GFP fluorescence was 25.3

Lab note: compound O=C(O)C(Cc1ccccc1[N+](=O)[O-])=NNc1nc(-c2ccc(Cl)c(Cl)c2)cs1 (mixture of isomers) tested on Drosophila S2 cl14 SmoIP sensor cells; recorded normalized SmoIP GFP fluorescence was 46.7

Lab note: compound CC1CCN(CC[C@H]2CCCN2S(=O)(=O)c2cccc(O)c2)CC1 tested on Drosophila S2 cl14 SmoIP sensor cells; recorded normalized SmoIP GFP fluorescence was 1.21

Lab note: compound CCOc1cc2ncc(C#N)c(Nc3ccc(F)c(Cl)c3)c2cc1NC(=O)/C=C/CN(C)C tested on Drosophila S2 cl14 SmoIP sensor cells; recorded normalized SmoIP GFP fluorescence was 9.86

====

Tested on: Drosophila S2 cl14 SmoIP sensor cells
protocol_description: normalized SmoIP GFP fluorescence (untreated unstimulated = 0%, untreated Hh-stimulated = 100%); higher = more Smo activation sensor fluorescence
experimental_context: stimulation: mock conditioned medium (-Hh); compound concentration: 2 uM; 24 h
measured_attribute: normalized SmoIP GFP fluorescence (%)
# value in %; strip the unit string

Example entries and their recorded answers appear below.
structure_smiles_string | normalized SmoIP GFP fluorescence [%]
O=C(NNc1ccccc1)c1ccncc1 | -2.71
N#CC1(c2ccc(NC(=O)c3cccnc3NCc3ccncc3)cc2)CCCC1 | -1.34

Please turn your attention to the following entry.
Lab note: compound CCCCN(Cc1ccc(C(=O)NO)cc1)C(=O)Nc1ccccc1 tested on Drosophila S2 cl14 SmoIP sensor cells; recorded normalized SmoIP GFP fluorescence was 6.74

====

System: Drosophila S2 cl14 SmoIP sensor cells
protocol_description: normalized SmoIP GFP fluorescence (untreated unstimulated = 0%, untreated Hh-stimulated = 100%); higher = more Smo activation sensor fluorescence
experimental_context: stimulation: mock conditioned medium (-Hh); compound concentration: 2 uM; 24 h
// normalized SmoIP GFP fluorescence lookup, one value per entry
# value in %; strip the unit string

Example entries and their recorded answers appear below.
compound | val
O=C(NCc1cccc(O)c1)Nc1nc(-c2ccncc2)cs1 | -2.93
CC(C)C1CCC(C(=O)N[C@H](Cc2ccccc2)C(=O)O)CC1 (some centres undefined) [Nateglinide(Starlix)] | -4.71
CC(=O)N[C@@H](CS)C(=O)O [Acetylcysteine] | 1.57
Cn1cc(-c2ccc3c(c2)CCN3C(=O)Cc2cccc(C(F)(F)F)c2)c2c(N)ncnc21 | 39.3
N#C/C(=C(/N)Sc1ccc(N)cc1)c1ccccc1C(F)(F)F | 10.2

Please turn your attention to the following entry.
Lab note: measured normalized SmoIP GFP fluorescence of CCOC(=O)[C@H](CCc1ccccc1)N[C@@H](C)C(=O)N1CCC[C@H]1C(=O)O [Enalapril-maleate(Vasotec)] was -15.1

====

// normalized SmoIP GFP fluorescence lookup, one value per entry
System: Drosophila S2 cl14 SmoIP sensor cells;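 also: flow cytometry read-out as median GFP intensity of gated cells, compounds added 30 min before Hh-conditioned or mock medium, mock-treated cells serving as unstimulated baseline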
protocol_description: normalized SmoIP GFP fluorescence (untreated unstimulated = 0%, untreated Hh-stimulated = 100%); higher = more Smo activation sensor fluorescence
experimental_context: stimulation: mock conditioned medium (-Hh); compound concentration: 2 uM; 24 h
Structures can show the parent of a compound that is named as a salt.
# value in %; strip the unit string

Example entries and their recorded answers appear below.
molecule | test_system | measured_attribute | display_unit | val
COc1ccc(-c2ccc3ncc4c(c3c2)n(-c2ccc(N3CCNCC3)c(C(F)(F)F)c2)c(=O)n4C)cn1 | Drosophila S2 cl14 SmoIP sensor cells | normalized SmoIP GFP fluorescence | % | -7.6
CCOC(=O)[C@H]1O[C@@H]1C(=O)N[C@@H](CC(C)C)C(=O)NCCC(C)C | Drosophila S2 cl14 SmoIP sensor cells | normalized SmoIP GFP fluorescence | % | 3.51
Nc1cc(F)ccc1NC(=O)/C=C/c1cnn(C/C=C/c2ccccc2)c1 | Drosophila S2 cl14 SmoIP sensor cells | normalized SmoIP GFP fluorescence | % | -0.775
Nc1nc(Nc2ccc(S(N)(=O)=O)cc2)nn1C(=O)c1c(F)cccc1F | Drosophila S2 cl14 SmoIP sensor cells | normalized SmoIP GFP fluorescence | % | 67.9
COc1ccc(-c2nc(N3CCOCC3)c3sc(CN(C)c4ncc(C(=O)NO)cn4)cc3n2)cn1 | Drosophila S2 cl14 SmoIP sensor cells | normalized SmoIP GFP fluorescence | % | 82.3

Lab note: measured normalized SmoIP GFP fluorescence of CCCCc1oc2ccccc2c1C(=O)c1cc(I)c(OCCN(CC)CC)c(I)c1 [amiodarone-hcl] was 1.69

Lab note: measured normalized SmoIP GFP fluorescence of CN1CCN(C(=O)c2cc3cc(Cl)ccc3[nH]2)CC1 was -2.71

Lab note: measured normalized SmoIP GFP fluorescence of CC(C)(C)c1cnc(CSc2cnc(NC(=O)C3CCNCC3)s2)o1 was 66

Lab note: measured normalized SmoIP GFP fluorescence of CCc1nc(N)nc(N)c1-c1ccc(Cl)cc1 was 0.702

Lab note: measured normalized SmoIP GFP fluorescence of CN(c1ncccc1CNc1nc(Nc2ccc3c(c2)CC(=O)N3)ncc1C(F)(F)F)S(C)(=O)=O was 39.3
